- Tested on: H3K18Ac in HB-CLS-2 cells
- assay.details: H3K18AC in-cell western (ICW) assay
- Type: cell-based
- assay.setup: H3K18Ac in-cell western; read-out: CREBBP ICW IC50
property.label: IC50 (µM)

[
  {
    "compound": "CCn1ncc(CN(C)C(=O)c2cc(-c3cn(CCNC)cn3)nc3ccc(Cl)cc23)c1C",
    "result.unit": "µM",
    "IC50": 1
  }
]

(1) CCn1ncc(CN(C)C(=O)c2cc(-c3ccc(NCC(CN(C)C)OC)c(C)n3)nc3ccc(Cl)cc23)c1C (stereo not shown)
(2) CCn1ncc(CN(C)C(=O)c2cc(-c3ccc(NC4COC4)c(C)n3)nc3ccc(Cl)cc23)c1C
Compare IC50: is it lower for 1 or for 2 ? Write the label of whichever entry you select.
2

---

- Tested on: H3K18Ac in HB-CLS-2 cells
- assay.details: H3K18AC in-cell western (ICW) assay
- Type: cell-based
- assay.setup: H3K18Ac in-cell western; read-out: CREBBP ICW IC50
pIC50: −log10 of the molar value.
property.label: pIC50

Before answering, review these 6 worked examples.
[
  {
    "structure.smiles.string": "CCc1ncc(CN(C)C(=O)c2nc(-c3ccc(NCCN(C)C)nc3C)nc3ccc(Cl)cc23)n1C",
    "pIC50": 6.03
  },
  {
    "structure.smiles.string": "CCn1ncc(CN(C)C(=O)c2cc(-c3cnc(CNC)[nH]3)nc3ccc(Cl)cc23)c1C",
    "pIC50": 5.11
  },
  {
    "structure.smiles.string": "CCn1ncc(CN(C)C(=O)c2nc(-c3ccc(OCCNC)c(Cl)c3)nc3ccc(CS(C)(=O)=O)cc23)c1C",
    "pIC50": 4.77
  },
  {
    "structure.smiles.string": "CCn1ncc(CN(C)C(=O)c2nc(-c3cc4c(N)noc4cc3C)nc3ccc(Cl)cc23)c1C",
    "pIC50": 6.69
  },
  {
    "structure.smiles.string": "CCc1ncc(CN(C)C(=O)c2nc(-c3cc(C)nc(NCCN(C)C)c3)nc3ccc(Cl)cc23)n1C",
    "pIC50": 7.53
  },
  {
    "structure.smiles.string": "CCn1ncc(CN(C)C(=O)c2nc(-c3ccc(OCCO)c(F)c3)nc3ccc(Cl)cc23)c1C",
    "pIC50": 5.59
  }
]

(A) CCn1ncc(CN(C)C(=O)c2cc(-c3ccc(NCCNC)c(OC)c3)nc3ccc(Cl)cc23)c1C
(B) CCn1ncc(CN(C)C(=O)c2nc(-c3ccc4n[nH]c(N)c4c3)nc3ccc(Cl)cc23)c1C
Compare pIC50: is it lower for A or for B ? Write the label of whichever entry you select.
A

(A) CCn1ncc(CN(C)C(=O)c2nc(-c3cc(Cl)cc(NCCN(C)C(=O)OC(C)(C)C)c3)nc3ccc(Cl)cc23)c1C
(B) CCn1ncc(CN(C)C(=O)c2nc(-c3cc4c(N)n(CCNC)nc4cc3C)nc3ccc(Cl)cc23)c1C
Compare pIC50: is it lower for A or for B ? Write the label of whichever entry you select.
A

(I) CCc1nc(-c2cc(C(=O)N(C)Cc3cnc(CC)n3C)c3cc(COC)ccc3n2)ccc1NCCNC
(II) CCn1ncc(CN(C)C(=O)c2nc(-n3cc(C)cn3)nc3ccc(Cl)cc23)c1C
Compare pIC50: is it lower for I or for II ? Write the label of whichever entry you select.
II
(II: 4.72, I: 6.50)

(I) CCn1ncc(CN(C)C(=O)c2cc(-c3ccc(OCCO)c(C)n3)nc3ccc(Cl)cc23)c1C
(II) CCc1ncc(CN(C)C(=O)c2cc(-c3ccc(NCCNC)c(C)n3)nc3ccc(Cl)cc23)o1
Compare pIC50: is it lower for I or for II ? Write the label of whichever entry you select.
I
